Parameter: Kd. Scope: all listed entries.
Biological target: T1, Rb^P K462T (human, UniProt P06400 380-788, K462T)
T1 construct: also called variant 9
T1 sequence (looked up): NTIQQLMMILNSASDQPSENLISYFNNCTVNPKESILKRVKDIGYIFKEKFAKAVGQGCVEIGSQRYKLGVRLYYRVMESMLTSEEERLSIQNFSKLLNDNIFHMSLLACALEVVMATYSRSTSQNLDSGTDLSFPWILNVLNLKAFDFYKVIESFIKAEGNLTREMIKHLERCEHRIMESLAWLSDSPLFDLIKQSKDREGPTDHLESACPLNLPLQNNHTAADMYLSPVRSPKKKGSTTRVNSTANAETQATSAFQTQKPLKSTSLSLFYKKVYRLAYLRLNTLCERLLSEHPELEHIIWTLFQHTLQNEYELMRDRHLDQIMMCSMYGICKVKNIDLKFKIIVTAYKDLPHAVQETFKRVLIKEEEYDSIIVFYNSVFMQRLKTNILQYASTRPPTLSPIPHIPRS
Assay: fluorescence polarisation; 37 °C, after the 25 °C reading ramped over 7 min to 37 °C and 2 min incubation; unlabeled Rb^P against 1.5 nM TMR-E2F1^TD or 7.5 nM TMR-E7^LxCxE; 25 mM Tris pH 8.0, 200 mM NaCl, 1 mM DTT, 0.1% Tween-20; apparent Kd
Settings: both partners purified
No end group written: not given here. TMR = tetramethyl rhodamine dye
Give the number; nM is assumed, so skip it.

binder="{TMR}-GEGIRDLFDCDFGDLTPLD (also called E2F^TD; source: synthetic peptide, bought: GenScript) [TMR-E2F1^TD, peptide of the E2F1 transactivation domain]" attribute_measured=Kd reported_result=51

Query block: Name the reported Kd value associated with the binder DLYCYEQLN (also: TMR label, position not given here, source: synthetic peptide, bought: GenScript) [TMR-E7^LxCxE, LxCxE peptide of the E7 oncoprotein from HPV]
Result block: 16
